Target Of Assay: UniProtKB O94956
Sequence (O94956 whole entry): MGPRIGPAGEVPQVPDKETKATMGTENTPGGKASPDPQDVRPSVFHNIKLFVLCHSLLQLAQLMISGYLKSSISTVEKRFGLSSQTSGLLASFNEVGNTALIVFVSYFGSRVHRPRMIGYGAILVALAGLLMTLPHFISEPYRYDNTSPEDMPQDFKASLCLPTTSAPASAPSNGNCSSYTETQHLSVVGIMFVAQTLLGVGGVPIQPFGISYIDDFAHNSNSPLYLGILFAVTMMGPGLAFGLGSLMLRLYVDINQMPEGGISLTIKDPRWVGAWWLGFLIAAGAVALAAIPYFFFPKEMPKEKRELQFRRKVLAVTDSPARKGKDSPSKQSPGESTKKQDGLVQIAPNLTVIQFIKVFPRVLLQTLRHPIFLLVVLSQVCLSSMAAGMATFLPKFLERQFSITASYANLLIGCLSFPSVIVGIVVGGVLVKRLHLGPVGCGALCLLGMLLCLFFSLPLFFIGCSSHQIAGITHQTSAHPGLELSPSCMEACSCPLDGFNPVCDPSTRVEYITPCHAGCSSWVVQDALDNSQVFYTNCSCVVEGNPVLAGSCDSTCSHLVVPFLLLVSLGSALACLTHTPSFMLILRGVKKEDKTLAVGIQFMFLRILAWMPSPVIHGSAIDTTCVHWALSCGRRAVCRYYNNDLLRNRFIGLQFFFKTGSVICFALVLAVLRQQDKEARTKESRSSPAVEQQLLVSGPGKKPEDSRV
Test Details: Inhibition of human liver OATP2B1 expressed in HEK293 Flp-In cells assessed as reduction in [3H]E3S uptake at 20 uM incubated for 5 mins by scintillation counting
Conditions: hek293, 5 min
Assay Metric: INH (%)

entry_smiles=Cn1nnnc1SCC1=C(C(=O)O)N2C(=O)[C@@H](NC(=O)[C@H](O)c3ccccc3)[C@H]2SC1 assay_metric=INH readout_unit=% result=2.7
entry_smiles=COc1ccc([C@@H]2Sc3ccccc3N(CCN(C)C)C(=O)[C@@H]2OC(C)=O)cc1 assay_metric=INH readout_unit=% result=-9.1
entry_smiles=CC1=C(C(=O)O)N2C(=O)[C@@H](NC(=O)[C@H](N)c3ccc(O)cc3)[C@H]2SC1 assay_metric=INH readout_unit=% result=3.5

====

Target Of Assay: Solute carrier organic anion transporter family member 1B1 (Homo sapiens, UniProt Q9Y6L6)
Sequence (Q9Y6L6 whole entry): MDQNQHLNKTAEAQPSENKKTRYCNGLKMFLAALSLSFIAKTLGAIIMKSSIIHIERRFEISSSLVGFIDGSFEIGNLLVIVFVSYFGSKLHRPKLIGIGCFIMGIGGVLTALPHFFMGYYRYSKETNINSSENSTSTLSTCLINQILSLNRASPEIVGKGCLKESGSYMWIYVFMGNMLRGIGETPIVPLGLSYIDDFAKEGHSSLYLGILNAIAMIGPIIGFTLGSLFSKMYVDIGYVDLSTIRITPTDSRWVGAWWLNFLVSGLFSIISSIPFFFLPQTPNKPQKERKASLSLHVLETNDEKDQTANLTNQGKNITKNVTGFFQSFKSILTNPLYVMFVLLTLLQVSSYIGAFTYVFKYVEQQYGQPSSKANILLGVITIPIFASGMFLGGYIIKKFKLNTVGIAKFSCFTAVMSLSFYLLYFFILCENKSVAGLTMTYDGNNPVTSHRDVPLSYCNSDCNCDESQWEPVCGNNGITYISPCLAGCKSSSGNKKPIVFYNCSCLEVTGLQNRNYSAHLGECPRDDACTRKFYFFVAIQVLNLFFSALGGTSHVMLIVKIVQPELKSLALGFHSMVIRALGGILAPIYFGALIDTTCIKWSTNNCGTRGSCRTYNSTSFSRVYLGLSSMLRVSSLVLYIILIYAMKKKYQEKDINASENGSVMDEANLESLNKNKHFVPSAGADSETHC
Test Details: Inhibition of human liver OATP1B1 expressed in HEK293 Flp-In cells assessed as reduction in E17-betaG uptake at 20 uM by scintillation counting
Conditions: hek293, 20 µM
# label = fulfilled if INH >= 30% else not fulfilled

compound="COC(=O)[C@H]1[C@H]2C[C@@H]3c4[nH]c5cc(OC)ccc5c4CCN3C[C@H]2C[C@@H](OC(=O)c2cc(OC)c(OC)c(OC)c2)[C@@H]1OC [RESERPINE]" target_of_assay="Solute carrier organic anion transporter family member 1B1 (Homo sapiens, UniProt Q9Y6L6)" answer_label=fulfilled
compound="CC(C)N(CCC(C(N)=O)(c1ccccc1)c1ccccn1)C(C)C (stereo not drawn) [DISOPYRAMIDE]" target_of_assay="Solute carrier organic anion transporter family member 1B1 (Homo sapiens, UniProt Q9Y6L6)" answer_label=fulfilled
compound="Clc1ccccc1C(c1ccccc1)(c1ccccc1)n1ccnc1 [CLOTRIMAZOLE]" target_of_assay="Solute carrier organic anion transporter family member 1B1 (Homo sapiens, UniProt Q9Y6L6)" answer_label=fulfilled
compound="Cn1c(=O)c2c(ncn2C)n(C)c1=O [CAFFEINE]" target_of_assay="Solute carrier organic anion transporter family member 1B1 (Homo sapiens, UniProt Q9Y6L6)" answer_label="not fulfilled"
compound="Cc1ccc(C)c(OCCCC(C)(C)C(=O)O)c1 [GEMFIBROZIL]" target_of_assay="Solute carrier organic anion transporter family member 1B1 (Homo sapiens, UniProt Q9Y6L6)" answer_label=fulfilled
compound="COc1ccccc1OCC(O)CN1CCN(CC(=O)Nc2c(C)cccc2C)CC1 (stereo not drawn) [RANOLAZINE]" target_of_assay="Solute carrier organic anion transporter family member 1B1 (Homo sapiens, UniProt Q9Y6L6)" answer_label="not fulfilled"
compound="C[C@H](CCC(=O)NCC(=O)O)[C@H]1CC[C@H]2[C@@H]3[C@H](O)C[C@@H]4C[C@H](O)CC[C@]4(C)[C@H]3CC[C@]12C [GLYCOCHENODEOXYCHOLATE]" target_of_assay="Solute carrier organic anion transporter family member 1B1 (Homo sapiens, UniProt Q9Y6L6)" answer_label=fulfilled
compound="Cc1cn([C@H]2C[C@H](N=[N+]=[N-])[C@@H](CO)O2)c(=O)[nH]c1=O [ZIDOVUDINE]" target_of_assay="Solute carrier organic anion transporter family member 1B1 (Homo sapiens, UniProt Q9Y6L6)" answer_label="not fulfilled"
compound="OC(Cn1cncn1)(Cn1cncn1)c1ccc(F)cc1F [FLUCONAZOLE]" target_of_assay="Solute carrier organic anion transporter family member 1B1 (Homo sapiens, UniProt Q9Y6L6)" answer_label="not fulfilled"
compound=CC(C)CN(C[C@@H](O)[C@H](Cc1ccccc1)NC(=O)O[C@H]1CCOC1)S(=O)(=O)c1ccc(N)cc1 target_of_assay="Solute carrier organic anion transporter family member 1B1 (Homo sapiens, UniProt Q9Y6L6)" answer_label=fulfilled
compound="CCCC1O[C@@H]2C[C@H]3[C@@H]4CCC5=CC(=O)C=C[C@]5(C)[C@H]4[C@@H](O)C[C@]3(C)[C@]2(C(=O)CO)O1 (stereo partly drawn) [BUDESONIDE]" target_of_assay="Solute carrier organic anion transporter family member 1B1 (Homo sapiens, UniProt Q9Y6L6)" answer_label=fulfilled
compound="COCCc1ccc(OCC(O)CNC(C)C)cc1 (stereo not drawn) [METOPROLOL]" target_of_assay="Solute carrier organic anion transporter family member 1B1 (Homo sapiens, UniProt Q9Y6L6)" answer_label="not fulfilled"
compound="CC[C@]1(O)C[C@@H]2CN(CCc3c([nH]c4ccccc34)[C@@](C(=O)OC)(c3cc4c(cc3OC)N(C)[C@H]3[C@@](O)(C(=O)OC)[C@H](OC(C)=O)[C@]5(CC)C=CCN6CC[C@]43[C@@H]65)C2)C1 [VINBLASTINE]" target_of_assay="Solute carrier organic anion transporter family member 1B1 (Homo sapiens, UniProt Q9Y6L6)" answer_label=fulfilled
compound="CC[C@]1(O)C[C@H]2CN(CCc3c([nH]c4ccccc34)[C@@](C(=O)OC)(c3cc4c(cc3OC)N(C=O)[C@H]3[C@@](O)(C(=O)OC)[C@H](OC(C)=O)[C@]5(CC)C=CCN6CC[C@]43[C@@H]65)C2)C1 [VINCRISTINE]" target_of_assay="Solute carrier organic anion transporter family member 1B1 (Homo sapiens, UniProt Q9Y6L6)" answer_label="not fulfilled"
compound="CN1C(C(=O)Nc2ccccn2)=C(O)c2ccccc2S1(=O)=O [PIROXICAM]" target_of_assay="Solute carrier organic anion transporter family member 1B1 (Homo sapiens, UniProt Q9Y6L6)" answer_label="not fulfilled"
compound="COC(=O)C1=C(C)NC(C)=C(C(=O)OC(C)C)C1c1cccc2nonc12 (stereo not drawn) [ISRADIPINE]" target_of_assay="Solute carrier organic anion transporter family member 1B1 (Homo sapiens, UniProt Q9Y6L6)" answer_label=fulfilled
compound="COc1cc2c(c(OC)c1OC)-c1ccc(OC)c(=O)cc1[C@@H](NC(C)=O)CC2 [COLCHICINE]" target_of_assay="Solute carrier organic anion transporter family member 1B1 (Homo sapiens, UniProt Q9Y6L6)" answer_label=fulfilled
compound="CN/C(=N/CCSCc1nc[nH]c1C)NC#N [CIMETIDINE]" target_of_assay="Solute carrier organic anion transporter family member 1B1 (Homo sapiens, UniProt Q9Y6L6)" answer_label=fulfilled
compound=CCCc1nc2c(C)cc(-c3nc4ccccc4n3C)cc2n1Cc1ccc(-c2ccccc2C(=O)O)cc1 target_of_assay="Solute carrier organic anion transporter family member 1B1 (Homo sapiens, UniProt Q9Y6L6)" answer_label=fulfilled
compound="CNC(=O)c1cccnc1 [NICOTINYL METHYLAMIDE]" target_of_assay="Solute carrier organic anion transporter family member 1B1 (Homo sapiens, UniProt Q9Y6L6)" answer_label=fulfilled
compound="COC(=O)C1=C(C)NC(C)=C(C(=O)OCCN(C)Cc2ccccc2)C1c1cccc([N+](=O)[O-])c1 (stereo not drawn) [NICARDIPINE]" target_of_assay="Solute carrier organic anion transporter family member 1B1 (Homo sapiens, UniProt Q9Y6L6)" answer_label=fulfilled
compound="CCc1ccc(CCOc2ccc(CC3SC(=O)NC3=O)cc2)nc1 (stereo not drawn) [PIOGLITAZONE]" target_of_assay="Solute carrier organic anion transporter family member 1B1 (Homo sapiens, UniProt Q9Y6L6)" answer_label="not fulfilled"
